Molecular target: cloned human CCR8 receptor stably expressed in L1.2 cells (Homo sapiens, UniProt P51685)
Construct: expressed in transfected cells
Sequence (P51685 whole entry): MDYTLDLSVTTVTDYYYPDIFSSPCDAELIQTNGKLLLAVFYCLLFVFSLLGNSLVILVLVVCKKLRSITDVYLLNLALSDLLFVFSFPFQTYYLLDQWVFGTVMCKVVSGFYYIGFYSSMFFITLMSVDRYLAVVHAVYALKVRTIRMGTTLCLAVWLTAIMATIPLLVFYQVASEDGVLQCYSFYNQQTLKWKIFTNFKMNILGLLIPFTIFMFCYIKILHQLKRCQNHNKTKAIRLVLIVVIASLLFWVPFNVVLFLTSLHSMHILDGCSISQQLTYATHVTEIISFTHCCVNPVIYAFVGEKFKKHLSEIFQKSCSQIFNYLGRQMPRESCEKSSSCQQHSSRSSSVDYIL
Experiment: whole cell binding screen: inhibition of biotinylated human I309 binding to CCR8 (FMAT 8100 HTS)
Details: L1.2/hCCR8 cells, biotinylated human I-309, 10 point concentration response starting at 10 μM; read-out: Ki of compounds to inhibit I-309 binding to CCR8
property_label: Ki

[[record]]
compound = "Cc1ccccc1C(=O)Nc1ccc(S(=O)(=O)NC2CCN(C(=O)[C@H](C)N)CC2)c2ccccc12 [Compound C-120]"
result = "< 500 nM"

[[record]]
compound = "O=C(Nc1ccc(S(=O)(=O)Nc2ccncc2)c2ccccc12)c1ccccc1 [Compound A-14]"
result = "< 500 nM"

[[record]]
compound = "CN1CCCC(C(=O)Nc2ccc(S(=O)(=O)NC3CCNCC3)c3ccccc23)C1 [Compound D-22]"
result = "< 30000 nM"

[[record]]
compound = "CCOC(=O)N1CCC(NS(=O)(=O)c2ccc(CNCc3ccccc3)c3ccccc23)CC1 [Compound G-32]"
result = "< 500 nM"


GET /values?item= CC(C)c1ccc(NS(=O)(=O)c2ccc3cccc(NC(=O)c4ccccc4)c3c2)cc1 [Compound H-50] &system= cloned human CCR8 receptor stably expressed in L1.2 cells (Homo sapiens, UniProt P51685) returns Ki: < 30000 nM

GET /values?item= CCNC(=O)N1CCCC(NS(=O)(=O)c2ccc(NC(=O)c3ccccc3C)c3ccccc23)C1 (racemic) [Compound C-113] &system= cloned human CCR8 receptor stably expressed in L1.2 cells (Homo sapiens, UniProt P51685) returns Ki: < 500 nM
